// provenance: patent US5639735A

Experiment: Solubility
Settings: methanol
Metric: solubility in methanol

The compound listed as CO[C@@H]1[C@@H](O)[C@@H](O[C@H]2[C@H](Oc3cccc4c(=O)c5c(O)c(=O)c6ccc(C)c7c(=O)oc(c-5c67)c34)O[C@H](C)[C@H](O)[C@@H]2O)O[C@H](C)[C@@H]1OC has a reported solubility in methanol of slightly soluble

The compound listed as CO[C@H]1[C@@H](O)[C@@H](C)O[C@H](O[C@H]2[C@H](Oc3cccc4c(=O)c5c(N)c(=O)c6ccc(C)c7c(=O)oc(c-5c67)c34)O[C@H](C)[C@H](O)[C@@H]2O)[C@@H]1O has a reported solubility in methanol of slightly soluble

The compound listed as CO[C@@H]1[C@H](O)[C@@H](O)[C@@H](O[C@H]2[C@H](Oc3cccc4c(=O)c5c(N)c(=O)c6ccc(C)c7c(=O)oc(c-5c67)c34)O[C@H](C)[C@H](O)[C@@H]2O)O[C@@H]1C has a reported solubility in methanol of slightly soluble

The compound listed as Cc1ccc2c(=O)c(N)c3c(=O)c4cccc(O[C@@H]5O[C@H](C)[C@H](O)[C@H](O)[C@H]5O[C@H]5O[C@H](C)[C@H](O)[C@H](O)[C@H]5O)c4c4oc(=O)c1c2c4-3 has a reported solubility in methanol of slightly soluble

Let us move to another entry and its solubility in methanol.
The compound listed as CO[C@@H]1[C@@H](O)[C@@H](O[C@H]2[C@H](Oc3cccc4c(=O)c5c(N)c(=O)c6ccc(C)c7c(=O)oc(c-5c67)c34)O[C@H](C)[C@H](O)[C@@H]2O)O[C@H](C)[C@@H]1OC has a reported solubility in methanol of slightly soluble

* * *

Test: Solubility
Details: dimethylsulfoxide
Metric: solubility in dimethylsulfoxide

Worked set:
The compound listed as CO[C@@H]1[C@@H](O)[C@@H](O[C@H]2[C@H](Oc3cccc4c(=O)c5c(O)c(=O)c6ccc(C)c7c(=O)oc(c-5c67)c34)O[C@H](C)[C@H](O)[C@@H]2O)O[C@H](C)[C@@H]1OC [Hayumicin A] has a reported solubility in dimethylsulfoxide of readily soluble

The compound listed as CO[C@@H]1[C@@H](O)[C@@H](O[C@H]2[C@H](Oc3cccc4c(=O)c5c(N)c(=O)c6ccc(C)c7c(=O)oc(c-5c67)c34)O[C@H](C)[C@H](O)[C@@H]2O)O[C@H](C)[C@@H]1OC [Hayumicin B] has a reported solubility in dimethylsulfoxide of readily soluble

The compound listed as CO[C@H]1[C@@H](O)[C@@H](C)O[C@H](O[C@H]2[C@H](Oc3cccc4c(=O)c5c(N)c(=O)c6ccc(C)c7c(=O)oc(c-5c67)c34)O[C@H](C)[C@H](O)[C@@H]2O)[C@@H]1O [Hayumicin C2] has a reported solubility in dimethylsulfoxide of soluble

The compound listed as Cc1ccc2c(=O)c(N)c3c(=O)c4cccc(O[C@@H]5O[C@H](C)[C@H](O)[C@H](O)[C@H]5O[C@H]5O[C@H](C)[C@H](O)[C@H](O)[C@H]5O)c4c4oc(=O)c1c2c4-3 [Hayumicin D] has a reported solubility in dimethylsulfoxide of soluble

Let us move to another entry and its solubility in dimethylsulfoxide.
The compound listed as CO[C@@H]1[C@H](O)[C@@H](O)[C@@H](O[C@H]2[C@H](Oc3cccc4c(=O)c5c(N)c(=O)c6ccc(C)c7c(=O)oc(c-5c67)c34)O[C@H](C)[C@H](O)[C@@H]2O)O[C@@H]1C [Hayumicin C1] has a reported solubility in dimethylsulfoxide of soluble

* * *

Test: Solubility
Settings: water
Metric: solubility in water

The compound listed as CO[C@@H]1[C@H](O)[C@@H](O)[C@@H](O[C@H]2[C@H](Oc3cccc4c(=O)c5c(N)c(=O)c6ccc(C)c7c(=O)oc(c-5c67)c34)O[C@H](C)[C@H](O)[C@@H]2O)O[C@@H]1C has a reported solubility in water of practically insoluble

The compound listed as CO[C@H]1[C@@H](O)[C@@H](C)O[C@H](O[C@H]2[C@H](Oc3cccc4c(=O)c5c(N)c(=O)c6ccc(C)c7c(=O)oc(c-5c67)c34)O[C@H](C)[C@H](O)[C@@H]2O)[C@@H]1O has a reported solubility in water of practically insoluble

The compound listed as CO[C@@H]1[C@@H](O)[C@@H](O[C@H]2[C@H](Oc3cccc4c(=O)c5c(O)c(=O)c6ccc(C)c7c(=O)oc(c-5c67)c34)O[C@H](C)[C@H](O)[C@@H]2O)O[C@H](C)[C@@H]1OC has a reported solubility in water of insoluble

The compound listed as Cc1ccc2c(=O)c(N)c3c(=O)c4cccc(O[C@@H]5O[C@H](C)[C@H](O)[C@H](O)[C@H]5O[C@H]5O[C@H](C)[C@H](O)[C@H](O)[C@H]5O)c4c4oc(=O)c1c2c4-3 has a reported solubility in water of practically insoluble

Let us move to another entry and its solubility in water.
The compound listed as CO[C@@H]1[C@@H](O)[C@@H](O[C@H]2[C@H](Oc3cccc4c(=O)c5c(N)c(=O)c6ccc(C)c7c(=O)oc(c-5c67)c34)O[C@H](C)[C@H](O)[C@@H]2O)O[C@H](C)[C@@H]1OC has a reported solubility in water of insoluble
